TESTED TARGET: ΔF508-CFTR (Homo sapiens, UniProt P13569, DEL508-508)
Construct: host or cells: CFBE41o-, doxycycline-inducible
Sequence (P13569 with tags, fused parts or gaps DEL508-508): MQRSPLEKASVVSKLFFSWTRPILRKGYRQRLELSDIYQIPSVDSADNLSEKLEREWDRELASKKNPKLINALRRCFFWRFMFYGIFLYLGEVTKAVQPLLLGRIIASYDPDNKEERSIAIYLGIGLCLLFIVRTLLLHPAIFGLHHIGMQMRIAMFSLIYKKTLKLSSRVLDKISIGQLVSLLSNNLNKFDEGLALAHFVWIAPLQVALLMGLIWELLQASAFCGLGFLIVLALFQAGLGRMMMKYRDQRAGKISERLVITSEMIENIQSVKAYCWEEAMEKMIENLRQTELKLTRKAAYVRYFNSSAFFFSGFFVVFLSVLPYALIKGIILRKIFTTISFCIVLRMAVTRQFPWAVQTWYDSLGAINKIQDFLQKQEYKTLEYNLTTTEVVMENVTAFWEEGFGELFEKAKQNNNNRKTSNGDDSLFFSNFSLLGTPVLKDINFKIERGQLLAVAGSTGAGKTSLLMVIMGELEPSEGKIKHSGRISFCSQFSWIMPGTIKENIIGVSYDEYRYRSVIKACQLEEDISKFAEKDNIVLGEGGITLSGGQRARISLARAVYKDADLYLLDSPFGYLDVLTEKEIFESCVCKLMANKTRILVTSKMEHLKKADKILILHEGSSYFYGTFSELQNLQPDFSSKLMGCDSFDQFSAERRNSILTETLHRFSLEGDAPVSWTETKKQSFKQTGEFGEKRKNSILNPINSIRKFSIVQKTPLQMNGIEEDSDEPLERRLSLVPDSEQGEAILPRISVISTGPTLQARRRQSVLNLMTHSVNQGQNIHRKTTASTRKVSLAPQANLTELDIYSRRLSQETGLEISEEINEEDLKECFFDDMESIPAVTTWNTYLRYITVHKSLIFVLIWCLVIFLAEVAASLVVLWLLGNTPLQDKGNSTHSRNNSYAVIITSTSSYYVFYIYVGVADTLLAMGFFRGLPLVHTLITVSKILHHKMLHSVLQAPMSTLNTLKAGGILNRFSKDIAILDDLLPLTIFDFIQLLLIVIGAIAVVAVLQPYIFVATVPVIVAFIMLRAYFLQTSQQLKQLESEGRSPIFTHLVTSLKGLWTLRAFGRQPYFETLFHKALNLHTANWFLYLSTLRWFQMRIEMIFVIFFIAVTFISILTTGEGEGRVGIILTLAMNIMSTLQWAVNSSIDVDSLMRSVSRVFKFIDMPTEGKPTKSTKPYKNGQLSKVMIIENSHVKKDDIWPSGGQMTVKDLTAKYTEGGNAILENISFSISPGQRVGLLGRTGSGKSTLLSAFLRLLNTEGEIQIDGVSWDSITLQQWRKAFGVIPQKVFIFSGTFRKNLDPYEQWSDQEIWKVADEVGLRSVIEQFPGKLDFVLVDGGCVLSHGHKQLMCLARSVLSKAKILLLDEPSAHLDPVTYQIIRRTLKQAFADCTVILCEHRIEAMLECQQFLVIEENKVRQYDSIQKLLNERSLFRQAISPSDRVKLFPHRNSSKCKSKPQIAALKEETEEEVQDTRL
TEST METHOD NOTES: CFTR cell surface levels using HRP-tagged ΔF508-CFTR expressing CFBE cells, intrinsic corrector capacity
Type: cell-based
CONDITION DETAILS: HRP-tagged ΔF508-CFTR expressing CFBE41o- cells; compound alone (intrinsic corrector capacity); 20 hours at 33° C.; read-out: EC50
pEC50: −log10 of the molar value.
Parameter: pEC50. Scope: all listed entries.

| MOLECULE | pEC50 |
| --- | --- |
| CC(C)Oc1nn(C2CCCCC2)c2nc(C(=O)NS(C)(=O)=O)cc(-c3ccc(C(=O)N4CCC(N(C)C)CC4)cc3)c12 [Compound 544] | 5.48 |
| CC(C)c1nn(-c2ccc(F)cc2)c2nc(C(=O)NS(C)(=O)=O)cc(OCC3CCOCC3)c12 [Compound 284] | 6.56 |
| COCCN(C)c1ccc(-c2cc(C(=O)NS(C)(=O)=O)nc3c2c(C(C)C)nn3-c2cccc(N(C)C)c2)cc1 [Compound 82] | 6.33 |
| CS(=O)(=O)NC(=O)c1cc(N2CCC(N3CCCCC3)CC2)c2c(C3CCC3)nn(-c3ccc(F)cc3)c2n1 [Compound 450] | 6.21 |
| COCC1CCN(c2cc(C(=O)NS(C)(=O)=O)nc3c2c(C(C)C)nn3-c2cccc(N(C)C)c2)CC1 [Compound 144] | 6.38 |
| CS(=O)(=O)NC(=O)c1cc(-c2ccc(N3CCC(C#N)CC3)nc2)c2c(n1)n(-c1ccccc1)nc2[C@H]1C[C@H](C)C1 [Compound 257] | 6.43 |
| CN(C)S(=O)(=O)NC(=O)c1cc(N2CCC(N3CCCC(C#N)C3)CC2)c2c(C3CCC3)nn(-c3ccc(F)cc3)c2n1 (centres unmarked) [Compound 562] | 7.15 |
| O=C(NS(=O)(=O)N1CCC(F)C1)c1cc(N2CCC(N3CCOCC3)CC2)c2c(C3CCC3)nn(-c3ccc(F)cc3)c2n1 (centres unmarked) [Compound 537] | 6.95 |
| COc1cccc(-n2nc(C)c3c(-c4ccc(N5CCOCC5)cc4)cc(C(=O)NS(C)(=O)=O)nc32)c1 [Compound 72] | 5.65 |
| CCS(=O)(=O)NC(=O)c1cc(-c2cnc(N3CCOCC3)nc2)c2c(C(C)C)nn(-c3ccccc3)c2n1 [Compound 112] | 6.16 |
| CN(C)S(=O)(=O)NC(=O)c1cc(N2CCC(N3CCN(C4CC4)CC3)CC2)c2c(C3CCC3)nn(-c3ccc(F)cc3)c2n1 [Compound 583] | 6.75 |
| CS(=O)(=O)NC(=O)c1cc(-c2ccc(N3CCC(C#N)CC3)nc2)c2c(n1)n(-c1ccccc1)nc2[C@H]1C[C@H](F)C1 [Compound 210] | 6.54 |
| CN1CCC2(CC1)CCN(c1cc(C(=O)NS(=O)(=O)N3CCOCC3)nc3c1c(C1CCC1)nn3-c1ccc(F)cc1)CC2 [Compound 685] | 6.11 |
| CN(C)S(=O)(=O)NC(=O)c1cc(N2CCC3(CC2)CCN(C2COC2)CC3)c2c(C3CCC3)nn(-c3ccc(F)cc3)c2n1 [Compound 614] | 6.68 |
